Target: T1, human CD4 on cells (SKW3 cells; human PBMCs) (human, UniProt P01730 26-458)
T1 construct: whole, on cells; SKW3 CD4 knockout cells served as the negative cell line in the primary screen; also called hCD4; huCD4
Assay: FACS binning on SKW3 cells; competitor OKT4-A488; background 2163, max binding 8200
I'd be grateful if you could share measured OKT4-A488 signal with supernatant for these entries.
Answers are plain numbers.

Here are 2 binders together with their reported answers.
>  <binder>
75110_06C16A (antibody, V domains shown, Tested as non-clonal AlivaMab Mouse Kappa hybridoma supernatant (detected with anti-mouse Fc gamma and anti-human kappa)) VH: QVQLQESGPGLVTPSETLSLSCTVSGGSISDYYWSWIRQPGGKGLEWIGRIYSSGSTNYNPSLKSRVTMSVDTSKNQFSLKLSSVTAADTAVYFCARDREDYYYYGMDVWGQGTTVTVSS VL: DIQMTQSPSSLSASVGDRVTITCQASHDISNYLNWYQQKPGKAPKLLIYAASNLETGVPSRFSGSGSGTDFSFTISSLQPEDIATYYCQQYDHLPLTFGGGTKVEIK

>  <OKT4-A488 signal with supernatant>
8240

$$$$
>  <binder>
75110_08G08A (antibody, V domains shown, Tested as non-clonal AlivaMab Mouse Kappa hybridoma supernatant (detected with anti-mouse Fc gamma and anti-human kappa)) VH: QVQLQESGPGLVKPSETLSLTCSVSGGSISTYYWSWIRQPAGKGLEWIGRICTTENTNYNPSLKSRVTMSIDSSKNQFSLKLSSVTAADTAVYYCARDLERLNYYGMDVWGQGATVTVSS VL: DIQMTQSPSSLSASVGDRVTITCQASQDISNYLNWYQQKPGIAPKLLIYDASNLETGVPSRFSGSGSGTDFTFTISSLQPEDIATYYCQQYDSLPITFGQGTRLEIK

>  <OKT4-A488 signal with supernatant>
8890

$$$$

Now look at this entry.
Q. What measured OKT4-A488 signal with supernatant goes with 75110_08F20A (antibody, V domains shown, Tested as non-clonal AlivaMab Mouse Kappa hybridoma supernatant (detected with anti-mouse Fc gamma and anti-human kappa)) VH: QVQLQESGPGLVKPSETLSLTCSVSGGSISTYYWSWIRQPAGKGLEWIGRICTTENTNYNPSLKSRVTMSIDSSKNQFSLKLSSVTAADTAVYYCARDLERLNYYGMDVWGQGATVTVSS VL: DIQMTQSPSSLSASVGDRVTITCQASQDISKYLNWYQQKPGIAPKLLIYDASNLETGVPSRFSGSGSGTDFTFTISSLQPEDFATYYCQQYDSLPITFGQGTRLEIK ?
A. 7410
